Tested on: Streptococcus pneumoniae
Test: Antibacterial activity against Mef(A) efflux pump containing Streptococcus pneumoniae OC4438
Assay type: functional

compound: CC[C@H]1OC(=O)[C@H](C)[C@@H](OC(=O)N(C)Cc2cccnc2)[C@H](C)[C@@H](O[C@@H]2O[C@H](C)C[C@H](N(C)C)[C@H]2O)[C@](C)(OC(=O)NC/C=C/c2ccc(-c3ncccn3)cc2)C[C@@H](C)C(=O)[C@H](C)[C@H]2NC(=O)O[C@@]21C
value.units: µg/mL
MIC: 0.06
--
compound: CC[C@H]1OC(=O)[C@H](C)[C@@H](OC(=O)C(C)C)[C@H](C)[C@@H](O[C@@H]2O[C@H](C)C[C@H](N(C)C)[C@H]2O)[C@](C)(OC(=O)NC/C=C/C=C/c2cccnc2)C[C@@H](C)C(=O)[C@H](C)[C@H]2NC(=O)O[C@@]21C
value.units: µg/mL
MIC: 0.12
--
compound: CC[C@H]1OC(=O)[C@H](C)[C@@H](OC(=O)CC2CC2)[C@H](C)[C@@H](O[C@@H]2O[C@H](C)C[C@H](N(C)C)[C@H]2O)[C@](C)(OC(=O)NC/C=C/c2ccc(-c3ncccn3)cc2)C[C@@H](C)C(=O)[C@H](C)[C@H]2NC(=O)O[C@@]21C
value.units: µg/mL
MIC: 0.12
--
compound: CC[C@H]1OC(=O)[C@H](C)C(=O)[C@H](C)[C@@H](O[C@@H]2O[C@H](C)C[C@H](N(C)C)[C@H]2O)[C@](C)(OC)C[C@@H](C)C(=O)[C@H](C)[C@H]2N(CCCCn3cnc(-c4cccnc4)c3)C(=O)O[C@]12C [TELITHROMYCIN]
value.units: µg/mL
MIC: 0.25
